// provenance: paper PMC9352680

# Study system: T1, PUF4 RNA-binding domain (Saccharomyces cerevisiae, UniProt P25339 537-888)
# T1 sequence: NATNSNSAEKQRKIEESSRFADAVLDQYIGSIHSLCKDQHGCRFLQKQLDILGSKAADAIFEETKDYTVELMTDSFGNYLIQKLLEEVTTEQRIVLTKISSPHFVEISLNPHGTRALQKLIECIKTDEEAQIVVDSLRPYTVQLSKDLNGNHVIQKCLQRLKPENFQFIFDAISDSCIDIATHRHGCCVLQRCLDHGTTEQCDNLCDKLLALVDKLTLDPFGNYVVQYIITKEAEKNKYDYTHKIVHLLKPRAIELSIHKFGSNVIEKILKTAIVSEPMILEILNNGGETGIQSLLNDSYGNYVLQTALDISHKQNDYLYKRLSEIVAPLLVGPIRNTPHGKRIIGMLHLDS
# Protocol summary: Mg; RNA-MaP; 20 mM Na-HEPES pH 7.4, 30 mM KOAc, 0.75 mM MgCl2, 0.1% Tween-20, 5% glycerol, 0.1 mg/mL BSA, 2 mM DTT; 25 C; 0.0125-409.6 nM protein
# Test conditions: tags: N-His6-TEV cleaved; C-SNAP kept, Cy3B-labelled; label: tethered on chip by stalled RNA polymerase
Consider the following binders; for each one, report its Kd.
Quick note: give the figure in nM, leave out the unit.

Problem: Name the recorded Kd of the binder listed here: Id_iii_S2_P5E.9_K5.5_C5.3_H5.1_A5.2_F5.2_T5.2_[A12T] (ssRNA) RNA: UUUGAUUAAUAUGAUAUCGUUCUUUCUUCUUGUAAUAAAAUUUUCUUUCUCGAUAUCAUAUUAAUCUUU
Result: 158

Problem: Name the recorded Kd of the binder listed here: Ie_S2_P3E.2_K3.1_C3.2_H3.1_[+4CTCT]_A3.1_F3.1_T3.2 (ssRNA) RNA: UUUGAUUAAUAUGAUAUCGUUCUUUCUCUUGUACUCUUAUAUAUUCUUUCUCGAUAUCAUAUUAAUCUUU
Result: 3.27

Problem: Name the recorded Kd of the binder listed here: Ib_S2_P5E.1_K5.1_C5.1_H5.1_A5.1_[T5G]_F5.1_[T9C]_T5.1 (ssRNA) RNA: UUUGAUUAAUAUGAUAUCGUUCUUUCUUGUAGUAUCAUUCUUUCUCGAUAUCAUAUUAAUCUUU
Result: 104

Problem: Name the recorded Kd of the binder listed here: Id_ii_S2_P4E.2_K4.1_C4.2_[C-2T]_[T-1G]_H4.1_A4.1_F4.1_T4.2_[G10T] (ssRNA) RNA: UUUGAUUAAUAUGAUAUCGUUCUUUCUUGUGUAUAUUAUUUUCUUUCUCGAUAUCAUAUUAAUCUUU
Result: 0.23

Problem: Name the recorded Kd of the binder listed here: UCUCUUUGUAGCUUGAUCUCUU (ssRNA) [Ic_S1_P5E.1_K5.1_C5.1_H5.1_A5.1_[T5G]_[T6C]_[A7T]_F5.1_[T9G]_T5.1]
Result: 651
